# assayExplanation: RP, Waters ACQUITY UPLC BEH C18, 100 × 1 mm, 1.7 µm, 50 °C, 0.3 mL/min, estimated dead time 0.17 min; A: water + 0.1% formic acid + 20 mM ammonium formate; B: methanol + 0.1% formic acid + 20 mM ammonium formate; gradient (min/%B) 0/0 15/100 21/100 22/0 30/0
# assayConditions: stereoisomer not certain
measurementKind: log10 LC retention time (log10 of the value in min)
Each number you see is log10 of LC retention time, and the unit inside the log is min.

// worked examples, log10 LC retention time included
compound="Cc1cc(C)nc(NC(=O)NS(=O)(=O)c2ccccc2C(=O)OC2COC2)n1 [Oxasulfuron]" measurementkind="log10 LC retention time" measuredresult=1.05
compound="O=P(O)(O)CCCl [Ethephon]" measurementkind="log10 LC retention time" measuredresult=0.30
compound="CC(=NC#N)N(C)Cc1ccc(Cl)nc1 [Acetamiprid]" measurementkind="log10 LC retention time" measuredresult=0.97

IN: Specify reported log10 LC retention time for the compound shown: COC1CC(OC2CCC3(C)C(CCC4C3CCC3(C)C(C5=CC(=O)OC5)C(OC(C)=O)CC43O)C2)OC(C)C1O (stereo not given) [Oleandrin]
OUT: 1.16

IN: Specify reported log10 LC retention time for the compound shown: COc1ccc2[nH]cc(CCNC(C)=O)c2c1 [Melatonin]
OUT: 0.99

----------
# assayExplanation: RP, Waters ACQUITY UPLC BEH C18, 100 × 1 mm, 1.7 µm, 50 °C, 0.3 mL/min, estimated dead time 0.17 min; A: water + 0.1% formic acid + 20 mM ammonium formate; B: methanol + 0.1% formic acid + 20 mM ammonium formate; gradient (min/%B) 0/0 15/100 21/100 22/0 30/0
# assayConditions: stereoisomer not certain
measurementKind: LC retention time (min)
Express your answer in min, writing the number without its unit.

molecule=CC(C)(c1ccccc1)c1cc(-n2nc3ccccc3n2)c(O)c(C(C)(C)c2ccccc2)c1 measuredresult=16.6
molecule=CCOP(=O)(OCC)OC(=CCl)c1ccc(Cl)cc1Cl measuredresult=15.8
molecule=CN1CCN(C2=Nc3cc(Cl)ccc3Nc3ccccc32)CC1 measuredresult=11.7
molecule="CC(=O)OC1CC2(C)C3(CO3)C1OC1C=C(C)C(=O)C(O)C12CO (centres undefined)" measuredresult=9.62

IN: Specify reported LC retention time for the molecule shown: O=C(O)c1nc(Cl)ccc1Cl
OUT: 6.09

IN: Specify reported LC retention time for the molecule shown: Cc1onc(-c2ccccc2)c1C(=O)NC1C(=O)N2C1SC(C)(C)C2C(=O)O (centres undefined)
OUT: 12.7

IN: Specify reported LC retention time for the molecule shown: Cc1ccccc1O
OUT: 14.3

IN: Specify reported LC retention time for the molecule shown: Cc1cccc(C)c1N(Cn1cccn1)C(=O)CO
OUT: 11.1

IN: Specify reported LC retention time for the molecule shown: CN1COCN(Cc2cnc(Cl)s2)C1=N
OUT: 6.25

----------
As shown below, each of these compounds has a reported LC retention time value.
# assayExplanation: RP, Waters ACQUITY UPLC BEH C18, 100 × 1 mm, 1.7 µm, 50 °C, 0.3 mL/min, estimated dead time 0.17 min; A: water + 0.1% formic acid + 20 mM ammonium formate; B: methanol + 0.1% formic acid + 20 mM ammonium formate; gradient (min/%B) 0/0 15/100 21/100 22/0 30/0
# assayConditions: stereoisomer not certain
Express your answer in min, writing the number without its unit.

compound="CCOC(=O)OC1(C(=O)COC(=O)CC)CCC2C3CCC4=CC(=O)C=CC4(C)C3C(O)CC21C (configuration not stated) [Prednicarbate]" measurementkind="LC retention time" measuredresult=15.3
compound=CCC=Nc1c([N+](=O)[O-])cc(C)c(C)c1[N+](=O)[O-] measurementkind="LC retention time" measuredresult=8.48

IN: Specify reported LC retention time for the compound shown: Nc1ccc(S(=O)(=O)Nc2cnc3ccccc3n2)cc1
OUT: 14

IN: Specify reported LC retention time for the compound shown: COc1ccc(CCC(=O)c2c(O)cc(OC3OC(CO)C(O)C(O)C3OC3OC(C)C(O)C(O)C3O)cc2O)cc1O (configuration not stated)
OUT: 11.5

IN: Specify reported LC retention time for the compound shown: CCCCOC(=O)CCCCCCCCC(=O)OCCCC [Dibutyl sebacate]
OUT: 18.1

IN: Specify reported LC retention time for the compound shown: COC(=O)c1ccc(O)cc1
OUT: 9.98

IN: Specify reported LC retention time for the compound shown: Cc1cc([N+](=O)[O-])c(N)c([N+](=O)[O-])c1C
OUT: 14.6

IN: Specify reported LC retention time for the compound shown: Cc1ccccc1OP(=O)(Oc1ccccc1C)Oc1ccccc1C [Tris(2-methylphenyl) phosphate (tri-o-cresyl phosphate)]
OUT: 17

IN: Specify reported LC retention time for the compound shown: COc1nn(CSP(=S)(OC)OC)c(=O)s1
OUT: 13.2

----------
As shown below, each of these molecules has a reported LC retention time value.
# assayExplanation: RP, Waters ACQUITY UPLC BEH C18, 100 × 1 mm, 1.7 µm, 50 °C, 0.3 mL/min, estimated dead time 0.17 min; A: water + 10 mM ammonium bicarbonate; B: 10% water + 90% methanol + 10 mM ammonium bicarbonate; gradient (min/%B) 0/0 15/100 21/100 22/0 30/0
# assayConditions: stereoisomer not certain
Quick note: unit goes after the number.

// worked examples, LC retention time included
molecule="CC1(C)OC2CC3C4CCC5=CC(=O)C=CC5(C)C4C(O)CC3(C)C2(C(=O)CO)O1 (stereo not given) [Desonide]" measurementkind="LC retention time" measuredresult="13.9 min"
molecule="CC(C)(C)NCC(O)COc1nsnc1N1CCOCC1 (stereo not given) [Timolol]" measurementkind="LC retention time" measuredresult="13.2 min"
molecule="O=C(O)CCC(=O)c1ccc(F)cc1 [4-Fluorobenzoylpropionic acid]" measurementkind="LC retention time" measuredresult="7.83 min"
molecule="CNC(=O)Oc1ccccc1OC(C)C [Propoxur (baygon)]" measurementkind="LC retention time" measuredresult="11.9 min"
molecule="CN(C)CCC=C1c2ccccc2CCc2ccccc21 [Amitriptyline]" measurementkind="LC retention time" measuredresult="17.4 min"
molecule="Cc1ccc(-c2c(Cl)nc(C#N)n2S(=O)(=O)N(C)C)cc1 [Cyazofamid]" measurementkind="LC retention time" measuredresult="15.3 min"
molecule="CNC(=O)CSP(=O)(OC)OC [Omethoate]" measurementkind="LC retention time" measuredresult="6.12 min"
molecule="Cc1cccc(C)c1O [2,6-Dimethylphenol]" measurementkind="LC retention time" measuredresult="12 min"

IN: Specify reported LC retention time for the molecule shown: CCOC(=O)C1(c2ccccc2)CCN(C)CC1 [Meperidine]
OUT: 14.2 min

IN: Specify reported LC retention time for the molecule shown: CCc1cccc(C)c1N [6-Ethyl-2-toluidine]
OUT: 12.7 min

IN: Specify reported LC retention time for the molecule shown: NC(=O)N1c2ccccc2C=Cc2ccccc21 [Carbamazepin]
OUT: 12.6 min

IN: Specify reported LC retention time for the molecule shown: COc1cc2c(c3oc4cccc(O)c4c(=O)c13)C1C=COC1O2 (stereo not given) [Sterigmatocystin]
OUT: 15 min

----------
# assayExplanation: RP, Waters ACQUITY UPLC BEH C18, 100 × 1 mm, 1.7 µm, 50 °C, 0.3 mL/min, estimated dead time 0.17 min; A: water + 0.1% formic acid + 20 mM ammonium formate; B: methanol + 0.1% formic acid + 20 mM ammonium formate; gradient (min/%B) 0/0 15/100 21/100 22/0 30/0
# assayConditions: stereoisomer not certain
As shown below, each of these compounds has a reported LC retention time value.

// worked examples, LC retention time included
compound="CC(C)=NOCCOC(=O)C(C)Oc1ccc(Oc2cnc3cc(Cl)ccc3n2)cc1 (centres undefined)" measuredresult="16.8 min"
compound="CC(=O)C1CCC2C3CCC4=CC(=O)CCC4(C)C3CCC12C (centres undefined)" measuredresult="15.5 min"
compound=CCN(CCO)c1cccc(C)c1 measuredresult="6.13 min"
compound="COc1cc2c(c(OC)c1OC)-c1ccc(OC)c(=O)cc1C(NC(C)=O)CC2 (centres undefined)" measuredresult="11.4 min"
compound=C[N+](C)(C)C measuredresult="2 min"

IN: Specify reported LC retention time for the compound shown: Cc1c(C=O)c(=O)n(-c2ccccc2)n1C [4-Formyl-antipyrine]
OUT: 7.75 min

IN: Specify reported LC retention time for the compound shown: CCC(C)(C)C(=O)OC1=C(c2ccc(Cl)cc2Cl)C(=O)OC12CCCCC2
OUT: 17.6 min

IN: Specify reported LC retention time for the compound shown: CCC12CCCN3CCc4c(n(c5ccccc45)C(O)(C(=O)OC)C1)C32 (centres undefined)
OUT: 9.43 min

IN: Specify reported LC retention time for the compound shown: CC(=O)Nc1ccc(OC2OC(C(=O)O)C(O)C(O)C2O)cc1 (centres undefined) [acetaminophen_glucuronide]
OUT: 3.8 min

----------
As shown below, each of these compounds has a reported LC retention time value.
# assayExplanation: RP, Waters ACQUITY UPLC BEH C18, 100 × 1 mm, 1.7 µm, 50 °C, 0.3 mL/min, estimated dead time 0.17 min; A: water + 10 mM ammonium bicarbonate; B: 10% water + 90% methanol + 10 mM ammonium bicarbonate; gradient (min/%B) 0/0 15/100 21/100 22/0 30/0
# assayConditions: stereoisomer not certain
Express your answer in min, writing the number without its unit.

compound="CC(=O)OC1(C(C)=O)CCC2C3CC(C)C4=CC(=O)CCC4(C)C3CCC21C (stereo not drawn) [Medroxyprogesteroneacetate]" measuredresult=15.8
compound=CC(C)(C)c1ccc(CSc2cnn(C(C)(C)C)c(=O)c2Cl)cc1 measuredresult=18.3
compound="CC(CN1c2ccccc2Sc2ccccc21)N(C)C (stereo not drawn)" measuredresult=16.8
compound=CNC(=O)C=C(C)OP(=O)(OC)OC measuredresult=8.11
compound=O=NN1CCOCC1 measuredresult=3.78

IN: Specify reported LC retention time for the compound shown: CC1COc2c(N3CCN(C)CC3)c(F)cc3c(=O)c(C(=O)O)cn1c23 (stereo not drawn)
OUT: 9.6

IN: Specify reported LC retention time for the compound shown: COCC(C)N(C(=O)CCl)c1c(C)csc1C (stereo not drawn)
OUT: 14.4

IN: Specify reported LC retention time for the compound shown: CC=C1CC(C)C(O)(CO)C(=O)OCC2=CCN3CCC(OC1=O)C23 (stereo not drawn)
OUT: 11.6

IN: Specify reported LC retention time for the compound shown: CCCSc1ccc2nc(NC(=O)OC)[nH]c2c1
OUT: 14.2
